Sourced from patent US20230022724A1

tested on: Acinetobacter baumannii ATCC17978; assay: Antimicrobial susceptibility testing: 90% growth inhibitory concentration (IC90) determination; assay type: cell-based; conditions: Acinetobacter baumannii, ATCC17978, 16 h, 90% growth inhibitory concentration, Acinetobacter baumannii ATCC17978, Iso-Sensitest broth, OD 600 nm over 16 h; read-out: ATCC17978 IC90
Where a name gives a salt, the structure may show the parent alone.
Entries whose IC90 is below 0.2 µM take Satisfied; entries at or above 0.2 µM take Not satisfied.

Below, 5 compounds whose answers are already recorded.
N#CCOc1ccc(-c2cnc3c(Nc4ccc(C(=O)N5CCOCC5)c(Cl)c4)nccn23)c(F)c1F
Satisfied
COc1ccc(-c2cnc3c(Nc4ccc(C(=O)N5CCC(CN)CC5)c(Cl)c4)nccn23)c(F)c1F
Satisfied
COc1ccc(-c2cnc3c(Nc4ccc(C(=O)N5CCN(CCN6CCC6)CC5)c(Cl)c4)nccn23)cc1F
Not satisfied
COc1ccc(-c2cnc3c(Nc4ccc(C(=O)N5CCC(CN)CC5)c(Cl)c4)nccn23)cc1F [Example 4, hydrochloride]
Satisfied
COc1ccc(-c2cnc3c(Nc4ccc(C(=O)N5CCN(C)CC5)cc4)nccn23)cc1Cl
Not satisfied

In plain terms, does "COc1ccc(-c2cnc3c(Nc4ccc(C(=O)N5CCN(Cc6cnc[nH]6)CC5)c(Cl)c4)nccn23)cc1F" come in under 0.2 µM for IC90? Not satisfied

What do you get for "COc1ccc(-c2cnc3c(Nc4ccc(C(=O)N5CCOCC5)cc4)nccn23)cc1Cl" ? Not satisfied

What do you get for COc1ccc(-c2cnc3c(Nc4ccc(C(=O)N5CCC(C(=O)N6CCNC(CO)C6)CC5)c(Cl)c4)nccn23)cc1F (centres unmarked) [Example 70, hydrochloride] ? Not satisfied

What do you get for N#CCOc1ccc(-c2cnc3c(Nc4ccc(C(=O)N5CCC(C(=O)N6CCNCC6CO)CC5)c(Cl)c4)nccn23)c(F)c1F (centres unmarked) [Example 30, trifluoroacetate] ? Satisfied

What do you get for "NCC1CCN(C(=O)c2ccc(Nc3nccn4c(-c5ccc(OCC#CCO)c(F)c5)cnc34)cc2Cl)CC1" ? Not satisfied
